Values were extracted from patent US20190365673A1.

System: 1205Lu melanoma cells
Assay remarks: Cell viability assay (EZQuant), 1205Lu
Type: cell-based
Measurement setup: Homo sapiens, AP alone, 72 h, BRAF V600E
Readout type: IC50 (µM)

| Item smiles | Unit of measure | Data value |
| --- | --- | --- |
| CNCNCNCc1ccc(CNCNCNC)c2ccccc12 | µM | 0.7 |

----------
System: B16F10-BRAF^V600E cells
Assay remarks: Cell viability assay, B16F10-BRAF V600E
Measurement setup: Mus musculus, read-out: IC50 (cytotoxicity)
pIC50: −log10 of the molar value.

| Molecule | pIC50 |
| --- | --- |
| CNCNCNCc1ccc(CNCNCNC)c2ccccc12 [AP] | 4.61 |

----------
Test system: WM989 melanoma cells
Assay remarks: Cell viability assay (EZQuant), WM989
Assay type: cell-based
Measurement setup: Homo sapiens; AP alone, 72 h, WM989, BRAF V600E

| Item smiles | IC50 |
| --- | --- |
| CNCNCNCc1ccc(CNCNCNC)c2ccccc12 | 1.2 µM |
